molecular target: Kv1.5 potassium channel (Homo sapiens); construct: expressed in transfected cells; assay: Whole-cell patch clamp electrophysiological recording of Kv1.5 currents in CHO cells; format: cell-based; details: CHO cells stably expressing Kv1.5, whole-cell voltage clamp, holding potential −80 mV, one depolarization every 10 seconds, read-out: Steady-state Current Inhibition at 0.1 μM (%)
Please enter TRUE where inhibition at 0.1 µM is greater than or equal to 80%, and FALSE where it is lower.

Solved entries:
Cn1ccnc1CN(C(=O)[C@@H]1C[C@H]1c1ccc(F)cc1)c1ccc2c(c1)[C@@H](NS(=O)(=O)c1cccc(F)c1)CCC2 :: TRUE
Cc1ncc(CN(C(=O)C2CC2c2ccccc2)c2ccc3c(c2)C(NS(=O)(=O)c2ccc(F)cc2)CCC3)n1CC(C)C (stereo not drawn) :: FALSE

Now let's try a different one.
input: Hi, just wondering whether `Cn1ccnc1CN(C(=O)[C@H]1C[C@@H]1c1ccc(Cl)cc1)c1ccc2c(c1)[C@@H](NS(=O)(=O)c1ccc(F)cc1)CCC2` shows inhibition at 0.1 µM of 80% or higher.
output: FALSE

---

Target: Kv1.5 potassium channel (Homo sapiens, UniProt P22460)
Construct: expressed in transfected cells
Sequence (P22460 whole entry): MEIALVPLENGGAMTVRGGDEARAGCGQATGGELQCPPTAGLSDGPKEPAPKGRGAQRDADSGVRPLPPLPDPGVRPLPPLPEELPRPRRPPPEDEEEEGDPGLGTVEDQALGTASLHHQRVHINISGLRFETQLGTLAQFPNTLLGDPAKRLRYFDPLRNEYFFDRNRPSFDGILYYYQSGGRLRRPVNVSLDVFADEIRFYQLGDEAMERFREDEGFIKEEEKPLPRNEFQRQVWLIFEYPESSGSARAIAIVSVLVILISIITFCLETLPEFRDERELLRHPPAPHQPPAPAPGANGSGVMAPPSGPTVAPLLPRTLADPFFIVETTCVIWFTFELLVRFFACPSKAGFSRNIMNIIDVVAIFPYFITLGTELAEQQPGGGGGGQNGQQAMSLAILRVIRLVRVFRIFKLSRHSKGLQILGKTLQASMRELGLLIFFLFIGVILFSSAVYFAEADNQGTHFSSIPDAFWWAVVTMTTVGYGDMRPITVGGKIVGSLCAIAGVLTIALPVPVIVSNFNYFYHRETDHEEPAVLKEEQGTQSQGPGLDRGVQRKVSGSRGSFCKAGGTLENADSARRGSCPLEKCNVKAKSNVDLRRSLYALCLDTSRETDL
Test: Whole-cell patch clamp electrophysiological recording of Kv1.5 currents in CHO cells
Type: cell-based
Settings: CHO cells stably expressing Kv1.5, whole-cell voltage clamp, holding potential −80 mV, one depolarization every 10 seconds, read-out: Peak Current Inhibition at 0.1 μM (%)
Protocol: Electrophysiological recordings of potassium currents in Chinese hamster ovary cells stably expressing the gene construct for the Kv1.5 potassium channel subunit were performed using the whole cell configuration of the patch clamp technique (Hamill et al., Pflugers Archiv 391:85, 1981). Cell lines expressing Kv1.5 were prepared using standard techniques known to those skilled in the art. Cells were plated on glass coverslips at a density of 2×10^4 cells/coverslip and used within 24-48 hours. […]
Entry flag: Met if inhibition at 0.1 µM reaches 60%; Not met if it does not.

input: Check the entry Cn1ccnc1CN(C(=O)[C@@H]1C[C@H]1c1ccccc1)c1ccc2c(c1)[C@@H](NS(=O)(=O)c1ccccc1)CCC2 [Example 6] : does inhibition at 0.1 µM equal or exceed 60%?
output: Met

---

Here the recorded inhibition at 0.1 µM is given for each entry.
target: Kv1.5 potassium channel (Homo sapiens); construct: expressed in transfected cells; experiment: Whole-cell patch clamp electrophysiological recording of Kv1.5 currents in CHO cells; assay type: cell-based; conditions: CHO cells stably expressing Kv1.5, whole-cell voltage clamp, holding potential −80 mV, one depolarization every 10 seconds, read-out: Steady-state Current Inhibition at 0.1 μM (%)
Hi! Could you send only the number? It should be in %, unit omitted.

input: Please look at this molecule and report its inhibition at 0.1 µM: `Cc1cccc(CN(C(=O)[C@@H]2C[C@H]2c2ccc(C(F)(F)F)cc2)c2ccc3c(c2)[C@@H](NS(=O)(=O)c2ccccc2F)CCC3)n1`
output: 69

input: Assign inhibition at 0.1 µM to the following record: `Cn1ccnc1CN(C(=O)[C@@H]1C[C@H]1c1ccc(F)cc1)c1ccc2c(c1)[C@@H](NS(=O)(=O)c1ccccc1F)CCC2`
output: 78

input: Answer with the recorded inhibition at 0.1 µM for the molecule listed here: `Cn1ccnc1CN(C(=O)[C@@H]1C[C@H]1c1ccc(F)cc1)c1ccc2c(c1)[C@@H](NS(=O)(=O)c1ccc(F)cc1)CCC2`
output: 84

input: // fetch inhibition at 0.1 µM given entry Cc1cccc(CN(C(=O)C2CC2c2ccccc2)c2ccc3c(c2)C(NS(=O)(=O)c2ccccc2)CCC3)n1 (stereo not drawn)
output: 68

input: Given `Cn1ccnc1CN(C(=O)[C@@H]1C[C@H]1c1ccccc1)c1ccc2c(c1)[C@@H](NS(=O)(=O)c1ccccc1)CCC2` , respond with its inhibition at 0.1 µM.
output: 78

input: Give the value of inhibition at 0.1 µM reported for the following: `Cc1cccc(CN(C(=O)[C@@H]2C[C@H]2c2ccccc2)c2ccc3c(c2)[C@@H](NS(=O)(=O)c2ccc(Cl)cc2)CCC3)n1`
output: 80

---

molecular target: Kv1.5 potassium channel (Homo sapiens, UniProt P22460); construct: expressed in transfected cells; experiment: Whole-cell patch clamp electrophysiological recording of Kv1.5 currents in CHO cells; type: cell-based; conditions: CHO cells stably expressing Kv1.5, whole-cell voltage clamp, holding potential −80 mV, one depolarization every 10 seconds, read-out: Steady-state Current Inhibition at 0.1 μM (%)
Each item that follows carries a reported inhibition at 0.1 µM.
Response body: numeric value in %, unit text excluded.

Here's what some known entries look like.
Cn1ccnc1CN(C(=O)[C@@H]1C[C@H]1c1ccc(C(F)(F)F)cc1)c1ccc2c(c1)[C@@H](NS(=O)(=O)c1ccccc1F)CCC2 :: 72
Cc1cccc(CN(C(=O)[C@@H]2C[C@H]2c2ccccc2)c2ccc3c(c2)[C@@H](NS(=O)(=O)c2ccccc2)CCC3)n1 :: 96

Attention now turns to another entry.
input: State, in one line, measured inhibition at 0.1 µM of Cc1cccc(CN(C(=O)C2CC2c2ccccc2)c2ccc3c(c2)C(NS(=O)(=O)c2ccccc2Cl)CCC3)n1 (stereo not drawn)
output: 82

---

target: Kv1.5 potassium channel (Homo sapiens); construct: expressed in transfected cells; assay: Whole-cell patch clamp electrophysiological recording of Kv1.5 currents in CHO cells; assay type: cell-based; details: CHO cells stably expressing Kv1.5, whole-cell voltage clamp, holding potential −80 mV, one depolarization every 10 seconds, read-out: Steady-state Current Inhibition at 0.1 μM (%)
Reported inhibition at 0.1 µM by item:
Kindly write the number and append the unit.

input: Supply inhibition at 0.1 µM measured with Kv1.5 potassium channel (Homo sapiens) for Cc1cccc(CN(C(=O)[C@@H]2C[C@H]2c2ccccc2)c2ccc3c(c2)[C@@H](NS(=O)(=O)c2cccc(Cl)c2)CCC3)n1 [Example 14] .
output: 81%

input: Report value only: inhibition at 0.1 µM, Kv1.5 potassium channel (Homo sapiens), Cn1ccnc1CN(C(=O)[C@H]1C[C@@H]1c1ccc(Cl)cc1)c1ccc2c(c1)[C@H](NS(=O)(=O)c1ccccc1)CCC2 [Example 54]
output: 82%

input: Enter measured inhibition at 0.1 µM, system Kv1.5 potassium channel (Homo sapiens), for the compound shown: Cc1cccc(CN(C(=O)[C@@H]2C[C@H]2c2ccccc2)c2ccc3c(c2)[C@@H](NS(=O)(=O)c2ccc(F)cc2)CCC3)n1 [Example 13]
output: 82%

---

biological target: Kv1.5 potassium channel (Homo sapiens, UniProt P22460); construct: expressed in transfected cells; experiment: Whole-cell patch clamp electrophysiological recording of Kv1.5 currents in CHO cells; assay type: cell-based; settings: CHO cells stably expressing Kv1.5, whole-cell voltage clamp, holding potential −80 mV, one depolarization every 10 seconds, read-out: Peak Current Inhibition at 0.1 μM (%)
reportedEndpoint: inhibition at 0.1 µM

Record excerpt, results attached:
Cc1cccc(CN(C(=O)[C@@H]2C[C@H]2c2ccccc2)c2ccc3c(c2)[C@@H](NS(=O)(=O)c2ccc(Cl)cc2)CCC3)n1 :: 42%
Cc1cccc(CN(C(=O)[C@@H]2C[C@H]2c2ccccc2)c2ccc3c(c2)[C@@H](NS(=O)(=O)c2cccc(Cl)c2)CCC3)n1 :: 42%
Cn1ccnc1CN(C(=O)[C@@H]1C[C@H]1c1ccc(F)cc1)c1ccc2c(c1)[C@@H](NS(=O)(=O)c1ccc(F)c(Cl)c1)CCC2 :: 70%
Cc1cccc(CN(C(=O)C2CC2c2ccccc2)c2ccc3c(c2)C(NS(=O)(=O)c2ccccc2)CCC3)n1 (centres unmarked) :: 43%

Now for the compound whose inhibition at 0.1 µM we want.
input: Give inhibition at 0.1 µM for the following compound: `Cn1ccnc1CN(C(=O)[C@@H]1C[C@H]1c1ccccc1)c1ccc2c(c1)[C@@H](NS(=O)(=O)c1ccc(Cl)cc1)CCC2`
output: 64%
